Target: TRKA^F589L kinase (Homo sapiens (Human), UniProt P04629, F589L)
Sequence (P04629 33-796 F589L): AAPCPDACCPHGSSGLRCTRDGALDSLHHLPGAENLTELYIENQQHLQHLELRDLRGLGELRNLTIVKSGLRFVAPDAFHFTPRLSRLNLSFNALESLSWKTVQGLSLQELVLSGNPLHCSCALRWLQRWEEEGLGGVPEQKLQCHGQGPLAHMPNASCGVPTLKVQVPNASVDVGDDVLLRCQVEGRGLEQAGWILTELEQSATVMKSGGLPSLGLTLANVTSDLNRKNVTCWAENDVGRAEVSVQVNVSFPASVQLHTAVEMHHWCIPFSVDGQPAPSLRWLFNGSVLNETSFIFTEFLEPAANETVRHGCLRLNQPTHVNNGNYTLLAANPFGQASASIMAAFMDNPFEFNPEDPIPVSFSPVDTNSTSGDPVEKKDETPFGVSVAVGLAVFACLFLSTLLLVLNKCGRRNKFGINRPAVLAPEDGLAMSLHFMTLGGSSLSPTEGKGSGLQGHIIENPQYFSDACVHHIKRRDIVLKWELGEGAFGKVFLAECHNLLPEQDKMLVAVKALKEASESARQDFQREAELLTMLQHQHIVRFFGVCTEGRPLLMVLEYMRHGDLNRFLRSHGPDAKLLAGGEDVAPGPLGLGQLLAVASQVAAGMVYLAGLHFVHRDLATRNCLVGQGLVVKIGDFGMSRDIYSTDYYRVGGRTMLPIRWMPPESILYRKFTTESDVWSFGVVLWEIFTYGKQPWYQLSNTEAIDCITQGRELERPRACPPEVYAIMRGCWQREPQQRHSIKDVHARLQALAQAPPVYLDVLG
Experiment: Inhibitory activity against TRKA(F589L) kinase (Caliper mobility shift)
Conditions: in vitro kinase assay
property: IC50

compound=C[C@H]1Nc2ccc3ncc(n3n2)-c2cc(ncn2)COc2ccccc21 valueobserved="< 5 nM"
compound=C[C@H]1Nc2ccc3ncc(n3n2)-c2cc(ccn2)CCOc2ccccc21 valueobserved="< 5 nM"
compound="CC1Nc2ccc3ncc(n3n2)-c2cc(ccn2)COc2ncccc21 (stereo not drawn)" valueobserved="5.8 nM"
compound=Fc1ccc2c(c1)CNc1ccc3ncc(n3n1)-c1cc(ccn1)CO2 valueobserved="< 5 nM"
compound=Fc1cnc2c(c1)[C@H]1C[C@H](F)CN1c1ccc3ncc(n3n1)-c1nccc(n1)CCO2 valueobserved="< 5 nM"
compound="CC1Nc2ccc3ncc(n3n2)-c2cc(ccn2)COc2c(F)cc(F)cc21 (stereo not drawn)" valueobserved="6.2 nM"
compound=Fc1ccc2c(c1)[C@H]1CCCN1c1ccc3ncc(n3n1)-c1cc(ccn1)CO2 valueobserved="< 5 nM"
compound=C[C@H]1Nc2ccc3ncc(n3n2)-c2cc(ccn2)OCc2ccc(F)cc21 valueobserved="< 5 nM"

Now examine the next entry.
Query: Quick one: IC50 for CC1Nc2ccc3ncc(n3n2)-c2cncc(c2)COc2ccc(F)cc21 (stereo not drawn) ?
Reply: < 5 nM

---

Test system: Ba/F3-TPM3-NTRK1-G667C cells
Experiment: Growth inhibition of Ba/F3-TPM3-NTRK1-G667C cells (Cell Titer-Glo)
Format: cell-based
Conditions: 72 hours, CTG; read-out: inhibitory activity IC50 Ba/F3-TPM3-NTRK1-G667C
Kindly supply the reported pIC50 values for the records listed here.
One number for each entry, as −log10 of the molar value.

smilesrecord=Fc1ccc2c(c1)CNc1ccc3ncc(n3n1)-c1cc(ccn1)CO2 property=pIC50 valueobserved=7.03

Query: Notebook: pull reported pIC50 for Ba/F3-TPM3-NTRK1-G667C cells, entry Fc1cnc2c(c1)[C@H]1C[C@H](F)CN1c1ccc3ncc(n3n1)-c1nccc(n1)CO2
Reply: 8.07

---

System: Ba/F3-TPM3-NTRK1-G667C cells
Assay: Growth inhibition of Ba/F3-TPM3-NTRK1-G667C cells (Cell Titer-Glo)
Type: cell-based
Settings: 72 hours, CTG; read-out: inhibitory activity IC50 Ba/F3-TPM3-NTRK1-G667C
property: IC50

The following compounds have reported results that may help.
compound="C[C@H]1Nc2ccc3ncc(n3n2)-c2cc(ccn2)N2CCC[C@@H](C2)Oc2ccc(F)cc21 [Example I-44]" valueobserved="< 100 nM"
compound="Fc1ccc2c(c1)[C@H]1CCCN1c1ccc3ncc(n3n1)-c1cc(ncn1)CO2 [Example I-57]" valueobserved="< 100 nM"
compound="c1ccc2c(c1)CNc1ccc3ncc(n3n1)-c1cc(ccn1)CO2 [Example I-6]" valueobserved="526 nM"
compound="C[C@H]1Nc2ccc3ncc(n3n2)-c2cc(ncn2)CCOc2ccc(F)cc21 [Example I-74]" valueobserved="< 100 nM"
compound="Fc1ccc2c(c1)[C@H]1CCCN1c1ccc3ncc(n3n1)-c1cc(ccn1)[C@H]1CCC[C@H]1O2 [Example I-45]" valueobserved="< 100 nM"

For every item in the list below, what is its measured IC50?
1. C[C@@H]1Cc2ccnc(c2)-c2cnc3ccc(nn23)N2CCC[C@@H]2c2cc(F)ccc2O1 [Example I-37]
2. C[C@H]1Nc2ccc3ncc(n3n2)-c2cc(ccn2)COc2c(F)cc(F)cc21 [Example I-16]
3. Fc1ccc2c(c1)[C@H]1CCCN1c1ccc3ncc(n3n1)-c1nccc(n1)CO2 [Example I-61]
4. CC1(C)Nc2ccc3ncc(n3n2)-c2cc(ccn2)COc2ccc(F)cc21 [Example I-48]
5. CC1Nc2ccc3ncc(n3n2)-c2cc(ncn2)CCOc2ccccc21 (centres unmarked) [Example I-11]
6. C[C@H]1Nc2ccc3ncc(n3n2)-c2cc(ccn2)COc2ccc(F)cc21 [Example I-14]
7. CC1Nc2ccc3ncc(n3n2)-c2cc(ccn2)CCOc2ccccc21 (centres unmarked) [Example I-9]
8. C[C@H]1Nc2ccc3ncc(n3n2)-c2nccc(n2)CCOc2ccc(F)cc21 [Example I-84]

Reply:
1: < 100 nM; 2: < 100 nM; 3: < 100 nM; 4: < 100 nM; 5: 419 nM; 6: < 100 nM; 7: 308 nM; 8: < 100 nM

---

Test system: Ba/F3-TPM3-NTRK1-G595R cells
Assay: Growth inhibition of Ba/F3-TPM3-NTRK1-G595R cells (Cell Titer-Glo)
Type: cell-based
Conditions: 72 hours, CTG; read-out: inhibitory activity IC50 Ba/F3-TPM3-NTRK1-G595R
Kindly supply the reported log10 of IC50 values for the records listed here.
Form field - Quantity: IC50; Unit: nM; Scale: log10

The following molecules have reported results that may help.
molecule=C[C@@H]1Cc2ccnc(c2)-c2cnc3ccc(nn23)N2C[C@@H](F)C[C@@H]2c2cc(F)cnc2O1 valueobserved=-1.00
molecule=Fc1cnc2c(c1)[C@H]1C[C@H](F)CN1c1ccc3ncc(n3n1)-c1cc(ccn1)CCO2 valueobserved=-0.05
molecule=C[C@@H]1Cc2ccnc(c2)-c2cnc3ccc(nn23)N2C[C@@H](F)C[C@@H]2c2cc(F)ccc2O1 valueobserved=-1.00

For every item in the list below, what is its measured log10 of IC50?
1. Fc1ccc2c(c1)[C@H]1C[C@H](F)CN1c1ccc3ncc(n3n1)-c1cc(ncn1)CCO2
2. Fc1ccc2c(c1)[C@H]1C[C@H](F)CN1c1ccc3ncc(n3n1)-c1cc(ccn1)CCO2
3. CC1Nc2ccc3ncc(n3n2)-c2cc(ncn2)CCOc2ccccc21 (stereo not drawn)
4. CC1Nc2ccc3ncc(n3n2)-c2cc(ccn2)COc2c(F)cc(F)cc21 (stereo not drawn)
5. c1ccc2c(c1)CNc1ccc3ncc(n3n1)-c1cc(ccn1)CO2
6. CC1Nc2ccc3ncc(n3n2)-c2cc(ccn2)COc2ccccc21 (stereo not drawn)
7. CC1Nc2ccc3ncc(n3n2)-c2cc(ccn2)COc2ccc(F)cc21 (stereo not drawn)
8. Fc1ccc2c(c1)[C@H]1C[C@H](F)CN1c1ccc3ncc(n3n1)-c1cc(cnn1)CCO2

Reply:
1. 0.04
2. -0.40
3. 2.62
4. 2.39
5. 2.72
6. 2.72
7. 1.86
8. -0.22

For every item in the list below, what is its measured log10 of IC50?
1. C[C@H]1Cc2ccnc(n2)-c2cnc3ccc(nn23)N2C[C@@H](F)C[C@@H]2c2cc(F)cnc2O1
2. c1ccc2c(c1)CNc1ccc3ncc(n3n1)-c1cc(ccn1)CCO2
3. CC1Nc2ccc3ncc(n3n2)-c2cc(ncn2)COc2ccccc21 (stereo not drawn)
4. Fc1cnc2c(c1)[C@H]1C[C@H](F)CN1c1ccc3ncc(n3n1)-c1cc(cnn1)CO2

Reply:
0.15
2.75
2.58
0.20

---

Tested on: Ba/F3-TPM3-NTRK1-G667C cells
Test: Growth inhibition of Ba/F3-TPM3-NTRK1-G667C cells (Cell Titer-Glo)
Type: cell-based
Conditions: 72 hours, CTG; read-out: inhibitory activity IC50 Ba/F3-TPM3-NTRK1-G667C
pIC50: −log10 of the molar value.
The threshold is inclusive: pIC50 of exactly 8 counts as true (1); values below receive false (0).

compound="Fc1ccc2c(c1)[C@H]1C[C@H](F)CN1c1ccc3ncc(n3n1)-c1cc(cnn1)CO2 [Example I-66]" labelvalue="true (1)"
compound="C[C@@H]1Cc2ccnc(c2)-c2cnc3ccc(nn23)N2C[C@@H](F)C[C@@H]2c2cc(F)ccc2O1 [Example I-39]" labelvalue="true (1)"
compound="Fc1cnc2c(c1)[C@H]1C[C@H](F)CN1c1ccc3ncc(n3n1)-c1cc(cnn1)CCO2 [Example I-94]" labelvalue="true (1)"

Query: For this compound, is measured pIC50 8 or higher? C[C@H]1Cc2ccnc(n2)-c2cnc3ccc(nn23)N2C[C@@H](F)C[C@@H]2c2cc(F)cnc2O1 [Example I-96]
Reply: true (1)

Query: Now consider CC1Nc2ccc3ncc(n3n2)-c2cc(ccn2)COc2ccccc21 (stereo not shown) [Example I-3] .
Reply: false (0)

Query: Now consider CC1Nc2ccc3ncc(n3n2)-c2cc(ncn2)COc2ccccc21 (stereo not shown) [Example I-10] .
Reply: false (0)

Query: Now consider Fc1ccc2c(c1)[C@H]1C[C@H](F)CN1c1ccc3ncc(n3n1)-c1cc(ccn1)CO2 [Example I-50] .
Reply: true (1)

Query: Now consider Fc1ccc2c(c1)[C@H]1C[C@H](F)CN1c1ccc3ncc(n3n1)-c1cc(ccn1)CCO2 [Example I-54] .
Reply: true (1)

Query: Now consider C[C@@H]1CCc2ncc(F)cc2[C@H]2CCCN2c2ccn3ncc(c3n2)C(=O)N1 [LOXO-195, reference compound] .
Reply: false (0)

---

Target: TRKA^F589L kinase (Homo sapiens (Human), UniProt P04629, F589L)
Experiment: Inhibitory activity against TRKA(F589L) kinase (Caliper mobility shift)
Settings: in vitro kinase assay
pIC50: −log10 of the molar value.
property: pIC50

The following molecules have reported results that may help.
molecule=C[C@@H]1Cc2cc(ncn2)-c2cnc3ccc(nn23)N2C[C@@H](F)C[C@@H]2c2cc(F)ccc2O1 valueobserved="> 8.30"
molecule=Fc1ccc2c(c1)[C@H]1CCCN1c1ccc3ncc(n3n1)-c1cc(ncn1)CCO2 valueobserved="> 8.30"
molecule="CC1Nc2ccc3ncc(n3n2)-c2cc(ccn2)COc2ccc(F)cc21 (centres unmarked)" valueobserved=8.27
molecule=C[C@H]1Nc2ccc3ncc(n3n2)-c2cncc(c2)COc2ccc(F)cc21 valueobserved="> 8.30"
molecule="CC1Nc2ccc3ncc(n3n2)-c2cc(ccn2)COc2ccccc21 (centres unmarked)" valueobserved=8.15
molecule=C[C@H]1Nc2ccc3ncc(n3n2)-c2cc(cnn2)CCOc2ncc(F)cc21 valueobserved="> 8.30"
molecule=C[C@@H]1Cc2cc(ncn2)-c2cnc3ccc(nn23)N2CCC[C@@H]2c2cc(F)ccc2O1 valueobserved="> 8.30"

Query: Notebook: pull reported pIC50 for TRKA^F589L kinase (Homo sapiens (Human), UniProt P04629, F589L), entry c1ccc2c(c1)CNc1ccc3ncc(n3n1)-c1cc(ccn1)CCO2
Reply: > 8.30

These entries and their values trace back to patent US20260028352A1.
